Biological target: Tyrosyl-DNA phosphodiesterase 1 (Homo sapiens)
Assay: qHTS Assay for Inhibitors of Tyrosyl-DNA Phosphodiesterase (TDP1); further: nearly all actives have a fitted effect of over 40% in size
Conditions: recombinant TDP1, AlphaScreen DNA substrate cleavage; series mostly up to 130 µM
The campaign covered roughly 350,000 compounds. About 990 (0.28%) were called active. About 2% were inconclusive and are not listed. The call rests on the fitted dose curve; in most records, active means well fitted inhibition curve with a large enough effect; inconclusive means small, poorly fitted or top-dose-only effect; inactive means no such curve, though single readings can be large or run the other way. The sample holds actives, similar compounds and a random draw of the others, so the mix is not that of the screen.
Answer with one of the outcomes given here: 1 (active), -1 (inactive)

Solved cases (6 shown):
State the result this test recorded for O=C(CCCCCNC(=O)c1ccccc1)N/N=C/c1ccccc1 .
-1

Also, Cc1cccc(NC(=O)CN2C(=O)c3ccccc3C2=O)c1C please.
-1

Now the same for COc1cccc(NC(=O)c2ccc3nc(CCc4ccccc4)oc3c2)c1
-1

Try this compound next: Cc1nnc(SCC(=O)Nc2ccc(S(=O)(=O)Nc3ccc(Cl)nn3)cc2)s1
1

Same thing, different compound: CCOC(=O)c1ccccc1NC(=O)CSc1nc2ccccc2c(=O)[nH]1
-1

How about this compound: O=C(CCNC(=O)c1ccccc1)NN=Cc1ccc(Br)o1
1

Others:
Call for entry CC(Nc1ncnc2ccc(-c3ccc4c(c3)OCO4)cc12)c1ccco1 (stereo unspecified) :
-1

Another: O=C(CSc1nc2ccccc2c(=O)[nH]1)Nc1nc(-c2ccc(Br)cc2)cs1
1

Also COc1ccc(CCn2c3c(c(=O)[nH]c2=S)CN(C(C)C)CN3)cc1OC , if possible.
-1

Proceed to C=Cc1ccc(C(=O)N2CCCC(CCC(=O)N3CCN(c4ccccn4)CC3)C2)cc1 (stereo unspecified)
1

Please do the same for CCCCCC(=O)Nc1ccc(S(=O)(=O)Nc2ccc(Cl)nn2)cc1 as well.
-1
